Reported pIC50 values are given for each entry in this list.
Test system: no-11;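 further: growth inhibition of human NO-11 cells, read out with a cell viability assay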
Assay Method Text: cells
Format: functional, cell-based, Homo sapiens
Condition Set: Homo sapiens
Description: SANGER: Inhibition of human no-11 cell growth in a cell viability assay.
pIC50: −log10 of the molar value.

# annotated cases, reported pIC50 shown
CO[C@H]1C[C@@H]2CC[C@@H](C)[C@@](O)(O2)C(=O)C(=O)N2CCCC[C@H]2C(=O)O[C@H]([C@H](C)C[C@@H]2CC[C@@H](O)[C@H](OC)C2)CC(=O)[C@H](C)/C=C(\C)[C@@H](O)[C@@H](OC)C(=O)[C@H](C)C[C@H](C)/C=C/C=C/C=C/1C [SIROLIMUS] ... 7.08
CN(C)C/C=C/C(=O)Nc1cc2c(Nc3ccc(F)c(Cl)c3)ncnc2cc1O[C@H]1CCOC1 [AFATINIB] ... < 6.30
O=c1cc(-c2cccc3c2Sc2ccccc2S3)oc(N2CCOCC2)c1 [KU-55933] ... < 5.00
COc1ccc(C2=N[C@@H](c3ccc(Cl)cc3)[C@@H](c3ccc(Cl)cc3)N2C(=O)N2CCNC(=O)C2)c(OC(C)C)c1 [NUTLIN-3] ... < 5.10

Now for another entry.
Looking up CC(=O)O[C@@]12CO[C@@H]1C[C@H](O)[C@@]1(C)C(=O)[C@H](O)C3=C(C)[C@@H](OC(=O)[C@H](O)[C@@H](NC(=O)OC(C)(C)C)c4ccccc4)C[C@@](O)([C@@H](OC(=O)c4ccccc4)[C@H]21)C3(C)C [DOCETAXEL] , I see its pIC50 listed as < 8.00
